Listing of pKi toward Coagulation factor X (Homo sapiens, UniProt P00742), each taken from a published source.
pKi: −log10 of the molar value.

# molecule, test.target, readout.relation, pKi
rows = [
    ("COC(=O)CCCC1CCN(C(=O)[C@H](Cc2cccc(C(=N)N)c2)NS(=O)(=O)c2cccc(NC(=O)CCN)c2)CC1", "Coagulation factor X (Homo sapiens, UniProt P00742)", "=", 5.21),
    ("CCNc1nc(Cl)c2n(c1=O)[C@H](C(=O)NCc1ccc(C(=N)N)cc1)CC2(C)C", "Coagulation factor X (Homo sapiens, UniProt P00742)", "<", 4.82),
    ("N=C(N)c1cccc(Cn2c(C(=O)NCCc3ccc(Cl)c(Cl)c3)cc3c(O)cccc32)c1", "Coagulation factor X (Homo sapiens, UniProt P00742)", "=", 6.04),
    ("N=C(N)c1cccc(C(=O)N[C@@H](C(=O)N2CCC(Cc3ccccc3)CC2)c2ccccc2)c1", "Coagulation factor X (Homo sapiens, UniProt P00742)", "=", 7.52),
    ("C[n+]1ccc(-c2ccc(S(=O)(=O)N[C@H]3CCN(Cc4cccc(C(=N)N)c4)C3=O)cc2)cc1", "Coagulation factor X (Homo sapiens, UniProt P00742)", "=", 6.89),
    ("CS(=O)(=O)c1ccccc1N1CCC(NC(=O)c2cc(C(F)(F)F)nn2-c2ccc3onc(N)c3c2)CC1", "Coagulation factor X (Homo sapiens, UniProt P00742)", "=", 8.77),
    ("N=C(N)c1cccc(C[C@H](NS(=O)(=O)c2ccc(Cc3ccncc3)cc2)C(=O)N2CCC(CCN=C(N)N)CC2)c1", "Coagulation factor X (Homo sapiens, UniProt P00742)", "=", 5.64),
    ("Cc1cc(C(=O)Nc2ccc(-c3ccccc3S(N)(=O)=O)cc2)n(-c2ccc3nc(N)nc(N)c3c2)n1", "Coagulation factor X (Homo sapiens, UniProt P00742)", "=", 7.80),
    ("N=C(N)c1ccc(CNC(=O)[C@@H]2Cc3ccc(cc3)NC(=O)CN3CCN(CC3)CC(=O)Nc3ccc(cc3)C[C@@H](NC(=O)CCc3ccccc3)C(=O)N2)cc1", "Coagulation factor X (Homo sapiens, UniProt P00742)", "=", 4.69),
    ("CS(=O)(=O)c1ccccc1-c1ccc2c(c1)CCN2C(=O)C1CC(C(F)(F)F)=NN1c1ccc2onc(N)c2c1 (stereo unspecified)", "Coagulation factor X (Homo sapiens, UniProt P00742)", "=", 8.82),
    ("COc1ccc(-n2nc(-c3nnn[nH]3)c3c2C(=O)N(c2ccc(-c4ccccc4CN4CC[C@@H](O)C4)cc2)CC3)cc1", "Coagulation factor X (Homo sapiens, UniProt P00742)", "=", 9.20),
    ("Cc1cc(C(=O)Nc2ccc(C3=NCCN3C)cc2F)n(-c2ccc3cc(Cl)ccc3c2)n1", "Coagulation factor X (Homo sapiens, UniProt P00742)", "=", 9.00),
    ("N=C(N)NCCC(=O)Nc1cccc(S(=O)(=O)N[C@@H](Cc2cccc(C(=N)N)c2)C(=O)N2CCC(CCNC(=N)N)CC2)c1", "Coagulation factor X (Homo sapiens, UniProt P00742)", "=", 5.70),
    ("CCOc1cc(C(Nc2ccc3cnccc3c2)C(=O)NS(=O)(=O)c2ccc(S(C)(=O)=O)cc2)ccc1OC(C)C (stereo unspecified)", "Coagulation factor X (Homo sapiens, UniProt P00742)", "<", 5.10),
    ("N=C(N)c1cccc(Cn2c(C(=O)NCC3CCCCC3)cc3c(O)cccc32)c1", "Coagulation factor X (Homo sapiens, UniProt P00742)", "=", 5.95),
    ("CN(C)Cc1ccccc1-c1ccc(N2CCc3c(C(F)(F)F)nn(-c4ccccc4C(N)=O)c3C2=O)cc1", "Coagulation factor X (Homo sapiens, UniProt P00742)", "=", 8.57),
]
